Tested on: U2OS
Protocol: Multiplex assay against U2OS
Format: toxicity, cell-based
Experimental Parameters: human, 48 h, 10 µM, compound concentration 10 uM, replicate 1
Test Readout: Population Membrane Permeable-Phenotype (%)
Report only the number, with the unit % understood.

Use these answered entries as a reference point.
Molecule	Experimental Target	Value Reported
CN(C)C(=O)Cn1cc(-c2ccc(-c3nnc4ccccn34)cc2)cn1	U2OS	8
COc1cc2nc(N3CCN(C(=O)COc4c(OC)cccc4C(C)C)CC3)nc(N)c2cc1OC.Cl.Cl	U2OS	13
CCCCC[C@H](O)/C=C/[C@H]1[C@H](O)CC(=O)[C@@H]1CCCCCCC(=O)O	U2OS	4
C[C@H](NC(=O)CNC(=O)c1cccc(Cl)c1)c1ccccc1	U2OS	6
CSc1nc(NC2CCCC2)c([N+](=O)[O-])c(NC2CCCC2)n1	U2OS	5
COc1cc(C(=O)N2CC[C@@H](O)[C@@H](N)C2)cc2nc(-c3cc4ccccc4n3CC3CC3)n(C)c12.Cl	U2OS	47

Population Membrane Permeable-Phenotype (%) measured on Cl.Cl.OCCOCCN1CCN(C(c2ccccc2)c2ccc(Cl)cc2)CC1 (centres undefined) [HYDROXYZINE HYDROCHLORIDE] = 8

Population Membrane Permeable-Phenotype (%) measured on CN1CCC(C(=O)c2cccc(NC(=O)c3c(F)cc(F)cc3F)n2)CC1 = 8

Population Membrane Permeable-Phenotype (%) measured on COc1c(Nc2ccc(S(C)(=O)=O)nc2C)ncnc1OC1CCN(C(=O)OC(C)C)CC1 = 6
